# System: p-IKKa levels in L363 (NIK translocated multiple myeloma) cells
# test.description: Assay 2: Effect of compounds on p-IKKa levels in L363 (NIK translocated multiple myeloma) cells
# Type: cell-based
# experimental.conditions: Homo sapiens, L-363, 6 h, read-out: Assay 2 IC50 (nM), p-IKKa (Ser 176/180) in BAFF stimulated L363 cells with MG132, 6 h; average if tested more than once
Examples of compounds with documented IC50 follow.

Below: 5 compounds and their reported IC50.
| compound | target.desc | result |
| --- | --- | --- |
| CCn1ncc(Nc2nccc(-c3cccc(-c4cc([C@]5(O)CCN(C)C5=O)on4)n3)n2)c1OC | p-IKKa levels in L363 (NIK translocated multiple myeloma) cells | 50 to 500 nM |
| C[C@H](Nc1nccc(-c2cccc(-c3cc([C@]4(O)CCN(C)C4=O)on3)n2)n1)C(=O)N1CCCCC1 | p-IKKa levels in L363 (NIK translocated multiple myeloma) cells | 50 to 500 nM |
| C[C@H]1OCC[C@@H]1Nc1nccc(-c2cccc(-c3cc([C@]4(O)CCN(C)C4=O)on3)n2)n1 (single isomer, unassigned) | p-IKKa levels in L363 (NIK translocated multiple myeloma) cells | 50 to 500 nM |
| Cc1nnc(Nc2nccc(-c3cccc(-c4cc([C@]5(O)CCN(C)C5=O)on4)n3)n2)o1 | p-IKKa levels in L363 (NIK translocated multiple myeloma) cells | > 500 nM |
| CN1CC[C@@](O)(c2cc(-c3cccc(-c4ccnc(N[C@H](CO)c5ccccn5)n4)n3)no2)C1=O | p-IKKa levels in L363 (NIK translocated multiple myeloma) cells | 50 to 500 nM |

Input: Consider the compound C[C@@H](Nc1nccc(-c2cccc(-c3cc([C@]4(O)CCN(C)C4=O)on3)n2)n1)c1ccccn1 and give its measured IC50.
Output: 50 to 500 nM

Input: Consider the compound CO[C@H](C)CNc1nccc(-c2cccc(-c3cc([C@]4(O)CCN(C)C4=O)on3)n2)n1 and give its measured IC50.
Output: 50 to 500 nM

Input: Consider the compound Cc1cc(Nc2nccc(-c3cccc(-c4cc([C@]5(O)CCN(C)C5=O)on4)n3)n2)ccn1 and give its measured IC50.
Output: < 50 nM
